Where do these numbers come from? They come from ChEMBL document CHEMBL1140425.

The entries below come with measured half-life values attached.
experiment: Serum half life in mice administered with 10 mg/kg, po; format: ADME, organism-based; parameters: dose 10 mg/kg, route oral; settings: C57bl/6J, mouse
Please state the figure in h; there is no need to write the unit.

Compound	Readout name	Measured result
NC(=O)C1CCCc2c1[nH]c1ccc(Cl)cc21 (configuration not stated)	half-life	2.27

Consider the additional compound presented here.
Can you look up the measured half-life of NC(=O)C1CCCCc2c1[nH]c1ccc(Cl)cc21 (configuration not stated) for me?
1.57
